assay: LAP4-GFP modulation potency in yeast, dose response, cell-based, MLPCN hits, flow cytometry (AID 2745);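 further: yeast exposed to compound for three hours at 30 degrees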; details: S. cerevisiae LAP4-GFP reporter, flow cytometry fluorescence; at 33 µM (top of the series)
The source made the active and inactive calls. How the calls were made is not given here.
Attribute: LAP4-GFP fluorescence (kMESF)

Examples with their reported LAP4-GFP fluorescence (kMESF) follow.
>  <molecule>
Cc1ccc(N=Nc2ccc(O)c3ncccc23)cc1

>  <result>
4.95 kMESF (inactive)

$$$$
>  <molecule>
COc1ccc(N2C(=O)C(Cl)=C(Nc3c(C)n(C)n(-c4ccccc4)c3=O)C2=O)cc1

>  <result>
4.31 kMESF (inactive)

$$$$
>  <molecule>
COc1ccc(C(=O)/C=C2/C(=O)Nc3ccccc32)cc1OC

>  <result>
4.19 kMESF (inactive)

$$$$

Query molecule follows.
Dear colleague, please send me the reported LAP4-GFP fluorescence (kMESF) for O=C1C2C3C=CC(CO)(O3)C2C(=O)N1c1ccccc1-c1ccccc1 (centres undefined) when you can.
5.75 kMESF (inactive)

----------
Attribute: LAP4-GFP fluorescence (kMESF)
test: LAP4-GFP modulation potency in yeast, dose response, cell-based, MLPCN hits, flow cytometry (AID 2745);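 further: yeast exposed to compound for three hours at 30 degrees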; details: S. cerevisiae LAP4-GFP reporter, flow cytometry fluorescence; at 33 µM (top of the series)
Calls of active or inactive are those of the source. No rule for the calls is given here.

Dear colleague, please send me the reported LAP4-GFP fluorescence (kMESF) for CCOC(=O)Cn1cc(/C=C/[N+](=O)[O-])c2ccccc21 when you can.
8.42 kMESF (inactive)

----------
test: LAP4-GFP modulation potency in yeast, dose response, cell-based, MLPCN hits, flow cytometry (AID 2745);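 further: yeast exposed to compound for three hours at 30 degrees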; details: S. cerevisiae LAP4-GFP reporter, flow cytometry fluorescence; at 33 µM (top of the series)
Calls of active or inactive are those of the source. The rule behind the calls is not given here.
testReadout: LAP4-GFP fluorescence (kMESF)

Examples with their reported LAP4-GFP fluorescence (kMESF) follow.
>  <compound>
CCOC(=O)CSC1=NC(=O)/C(=C/c2ccc(OC)cc2)S1

>  <LAP4-GFP fluorescence (kMESF)>
6.28 kMESF (inactive)

$$$$
>  <compound>
CS(=O)(=O)N1N=C(c2ccccc2)CC1c1ccc2c(c1)OCO2 (stereo not given)

>  <LAP4-GFP fluorescence (kMESF)>
-20.2 kMESF (inactive)

$$$$
>  <compound>
COC(=O)c1cc(N2C(=O)C3C(C2=O)C2(C)C=CC3(C)O2)ccc1Cl (stereo not given)

>  <LAP4-GFP fluorescence (kMESF)>
8.52 kMESF (inactive)

$$$$
>  <compound>
CCC(C)/C(C)=N/NC(=O)c1ccc(COc2ccc(Cl)c(C)c2)cc1 (stereo not given)

>  <LAP4-GFP fluorescence (kMESF)>
4.7 kMESF (inactive)

$$$$

Query compound follows.
Dear colleague, please send me the reported LAP4-GFP fluorescence (kMESF) for CCCS(=O)(=O)c1nnnn1-c1cccc(OC)c1 when you can.
18.2 kMESF (inactive)

----------
assay: LAP4-GFP modulation potency in yeast, dose response, cell-based, MLPCN hits, flow cytometry (AID 2745);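 further: yeast exposed to compound for three hours at 30 degrees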; conditions: S. cerevisiae LAP4-GFP reporter, flow cytometry fluorescence; at 33 µM (top of the series)
The source made the active and inactive calls. No rule for the calls is given here.
Attribute: LAP4-GFP fluorescence (kMESF)

>  <molecule>
CCN(CC)C(=O)Oc1ccnc2cc(Cl)ccc12

>  <testReadout>
LAP4-GFP fluorescence (kMESF)

>  <result>
7.62 kMESF (inactive)

$$$$

Dear colleague, please send me the reported LAP4-GFP fluorescence (kMESF) for N#C/C(=C\c1ccccn1)c1nc2ccccc2s1 when you can.
15.1 kMESF (inactive)

Dear colleague, please send me the reported LAP4-GFP fluorescence (kMESF) for Cc1ccccc1C(=O)NNC(=S)NC(=O)c1ccc(Cl)cc1Cl when you can.
8.22 kMESF (inactive)

Dear colleague, please send me the reported LAP4-GFP fluorescence (kMESF) for CC(C)C(=O)NC(c1cccs1)c1cc([N+](=O)[O-])c2cccnc2c1O (centres undefined) when you can.
10.5 kMESF (inactive)
